Data provenance is paper PMC11491786.

Biological target: T1, activated factor XII (FXIIa) (UniProt P00748 20-372; P00748 373-615)
T1 sequence (looked up) 1: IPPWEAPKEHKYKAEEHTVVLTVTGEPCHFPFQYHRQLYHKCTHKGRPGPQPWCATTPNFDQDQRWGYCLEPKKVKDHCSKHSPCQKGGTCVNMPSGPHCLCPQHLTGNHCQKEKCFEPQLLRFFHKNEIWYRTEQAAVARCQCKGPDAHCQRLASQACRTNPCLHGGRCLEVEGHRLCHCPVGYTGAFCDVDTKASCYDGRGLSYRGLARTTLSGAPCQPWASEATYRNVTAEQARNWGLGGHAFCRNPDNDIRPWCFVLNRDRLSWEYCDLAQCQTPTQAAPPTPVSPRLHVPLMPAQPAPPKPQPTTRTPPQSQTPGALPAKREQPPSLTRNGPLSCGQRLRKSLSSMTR
T1 sequence (looked up) 2: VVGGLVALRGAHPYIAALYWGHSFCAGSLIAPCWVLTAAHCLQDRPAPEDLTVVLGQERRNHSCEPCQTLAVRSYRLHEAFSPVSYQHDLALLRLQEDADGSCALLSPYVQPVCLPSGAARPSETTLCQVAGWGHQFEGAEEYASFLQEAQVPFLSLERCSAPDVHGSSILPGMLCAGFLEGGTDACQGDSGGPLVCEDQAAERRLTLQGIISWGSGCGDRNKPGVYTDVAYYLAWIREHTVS
Assay: SPR
measuredQuantity: pKd
Give bare numbers, as −log10 of the molar value.

q: What pKd value was documented for this binder, LSEEPE [oligopeptide LE6 (Leu-Ser-Glu-Glu-Pro-Glu)] ?
a: 4.33
